Target: bovine pancreatic PLA2 (Bos taurus, UniProt P00593)
Construct: from tissue; host or cells: bovine pancreas
Sequence (P00593 23-145): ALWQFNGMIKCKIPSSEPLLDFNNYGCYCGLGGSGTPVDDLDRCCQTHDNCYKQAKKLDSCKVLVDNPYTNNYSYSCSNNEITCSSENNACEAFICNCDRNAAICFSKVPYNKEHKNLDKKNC
Experiment: Phospholipase A2 (PLA2) activity, enzyme assay
Assay type: biochemical
Conditions: text example; read-out: IC50 (concentration which would bring about an inhibition of 50%)
pIC50: −log10 of the molar value.
Measurement Type: pIC50

smiles_text=NCCCCCCNC(=O)[C@H](Cc1ccccc1)NS(=O)(=O)c1cccc2c(Cl)cccc12 measurement_type=pIC50 value_reported=4.17
